Hello, the source for this data is patent US20170101472A1, in case you need it.

Target: T1, human LAG3 expressed on HEK293 cells (human, UniProt P18627 23-525)
T1 construct: also called hLAG3; HEK293/hLAG3
T1 sequence: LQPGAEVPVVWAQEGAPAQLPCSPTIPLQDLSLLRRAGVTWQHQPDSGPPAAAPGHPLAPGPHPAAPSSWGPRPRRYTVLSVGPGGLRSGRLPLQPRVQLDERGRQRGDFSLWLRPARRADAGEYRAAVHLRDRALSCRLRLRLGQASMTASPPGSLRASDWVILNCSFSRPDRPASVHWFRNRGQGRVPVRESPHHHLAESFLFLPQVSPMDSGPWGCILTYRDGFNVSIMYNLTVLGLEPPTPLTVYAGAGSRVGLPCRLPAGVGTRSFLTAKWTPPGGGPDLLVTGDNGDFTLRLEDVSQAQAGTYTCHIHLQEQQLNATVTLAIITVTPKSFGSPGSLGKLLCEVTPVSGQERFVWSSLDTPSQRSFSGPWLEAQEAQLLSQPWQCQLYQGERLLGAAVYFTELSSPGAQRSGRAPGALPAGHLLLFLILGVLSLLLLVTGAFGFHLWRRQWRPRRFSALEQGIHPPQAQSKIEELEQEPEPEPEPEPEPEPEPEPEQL
Test: flow cytometry, HEK293/hLAG3 cells
readout.name: pEC50
# pEC50 is unitless: minus log10 of the molar concentration; print number only

*Q* What value of measured pEC50 is listed for H4sH15479P (antibody, V domains shown) VH: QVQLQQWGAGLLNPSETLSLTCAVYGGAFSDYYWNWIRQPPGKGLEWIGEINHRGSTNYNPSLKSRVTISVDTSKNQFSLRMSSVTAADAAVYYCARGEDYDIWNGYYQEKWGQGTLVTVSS VL: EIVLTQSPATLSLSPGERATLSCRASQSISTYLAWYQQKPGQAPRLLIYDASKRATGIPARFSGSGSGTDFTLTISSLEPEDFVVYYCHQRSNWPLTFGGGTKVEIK ?
*A* 9.04

*Q* Quick check: pEC50 of H4H14813N (antibody, human IgG4, V domains shown, H4H = human IgG4 Fc with S108P hinge mutation) VH: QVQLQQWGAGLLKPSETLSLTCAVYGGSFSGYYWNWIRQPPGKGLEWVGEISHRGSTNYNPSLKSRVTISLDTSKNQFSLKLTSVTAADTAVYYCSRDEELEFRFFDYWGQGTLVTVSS VL: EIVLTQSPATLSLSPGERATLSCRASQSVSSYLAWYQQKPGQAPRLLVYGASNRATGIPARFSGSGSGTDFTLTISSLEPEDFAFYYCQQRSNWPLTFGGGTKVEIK ?
*A* 8.84

*Q* Reported pEC50, binder H4sH14813N (antibody, human IgG4 S228P, kappa, V domains shown, H4sH = modified human IgG4 Fc) VH: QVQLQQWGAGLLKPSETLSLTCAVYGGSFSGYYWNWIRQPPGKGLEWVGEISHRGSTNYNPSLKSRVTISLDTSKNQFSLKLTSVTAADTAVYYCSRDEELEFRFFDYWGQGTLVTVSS VL: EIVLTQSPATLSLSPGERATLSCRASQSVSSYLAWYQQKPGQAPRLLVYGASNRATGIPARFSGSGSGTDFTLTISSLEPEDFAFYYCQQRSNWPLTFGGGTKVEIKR : ____
*A* 8.93

*Q* Need pEC50 of H4H15479P (antibody, human IgG4, V domains shown) VH: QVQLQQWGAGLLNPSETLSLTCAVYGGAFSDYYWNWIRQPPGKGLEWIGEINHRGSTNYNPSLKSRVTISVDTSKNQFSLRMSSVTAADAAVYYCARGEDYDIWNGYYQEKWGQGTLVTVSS VL: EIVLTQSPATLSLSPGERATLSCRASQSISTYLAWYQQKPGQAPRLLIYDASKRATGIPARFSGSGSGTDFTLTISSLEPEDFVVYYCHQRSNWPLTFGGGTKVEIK , thanks.
*A* 9.12

*Q* // pEC50 lookup, key: H4H15483P (antibody, human IgG4, V domains shown, H4H = human IgG4 Fc with S108P hinge mutation) VH: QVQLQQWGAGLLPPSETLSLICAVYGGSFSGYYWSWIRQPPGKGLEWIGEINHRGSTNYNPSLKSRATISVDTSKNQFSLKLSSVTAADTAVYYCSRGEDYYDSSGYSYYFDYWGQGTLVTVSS VL: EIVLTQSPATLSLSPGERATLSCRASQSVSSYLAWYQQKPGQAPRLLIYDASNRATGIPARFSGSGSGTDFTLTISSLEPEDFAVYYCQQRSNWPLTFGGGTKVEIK
*A* 8.64

*Q* Tell me the measured pEC50 of H4H17819P (antibody, human IgG4, V domains shown, H4H = human IgG4 Fc with S108P hinge mutation) VH: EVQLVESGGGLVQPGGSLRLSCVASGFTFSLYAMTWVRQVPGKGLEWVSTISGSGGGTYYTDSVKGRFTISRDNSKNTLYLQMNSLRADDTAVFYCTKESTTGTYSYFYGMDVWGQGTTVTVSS VL: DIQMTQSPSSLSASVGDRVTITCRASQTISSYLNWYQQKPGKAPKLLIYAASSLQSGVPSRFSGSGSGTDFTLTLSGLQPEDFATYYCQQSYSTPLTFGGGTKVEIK , please.
*A* 8.55

*Q* For H4H17823P (antibody, human IgG4, V domains shown, H4H = human IgG4 Fc with S108P hinge mutation) VH: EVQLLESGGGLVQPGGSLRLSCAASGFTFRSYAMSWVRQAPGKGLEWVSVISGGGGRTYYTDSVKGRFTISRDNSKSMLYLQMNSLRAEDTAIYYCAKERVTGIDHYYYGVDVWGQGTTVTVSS VL: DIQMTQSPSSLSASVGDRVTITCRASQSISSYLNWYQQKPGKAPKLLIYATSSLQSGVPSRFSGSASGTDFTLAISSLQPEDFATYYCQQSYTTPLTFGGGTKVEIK , what is its reported pEC50?
*A* 8.90
